molecular target: Toll-like receptor 1/2 (Homo sapiens, UniProt O60603+Q15399); test: Agonist activity at TLR2/TLR1 in human THP-1 cells; type: cell-based
Sequence (O60603 whole entry): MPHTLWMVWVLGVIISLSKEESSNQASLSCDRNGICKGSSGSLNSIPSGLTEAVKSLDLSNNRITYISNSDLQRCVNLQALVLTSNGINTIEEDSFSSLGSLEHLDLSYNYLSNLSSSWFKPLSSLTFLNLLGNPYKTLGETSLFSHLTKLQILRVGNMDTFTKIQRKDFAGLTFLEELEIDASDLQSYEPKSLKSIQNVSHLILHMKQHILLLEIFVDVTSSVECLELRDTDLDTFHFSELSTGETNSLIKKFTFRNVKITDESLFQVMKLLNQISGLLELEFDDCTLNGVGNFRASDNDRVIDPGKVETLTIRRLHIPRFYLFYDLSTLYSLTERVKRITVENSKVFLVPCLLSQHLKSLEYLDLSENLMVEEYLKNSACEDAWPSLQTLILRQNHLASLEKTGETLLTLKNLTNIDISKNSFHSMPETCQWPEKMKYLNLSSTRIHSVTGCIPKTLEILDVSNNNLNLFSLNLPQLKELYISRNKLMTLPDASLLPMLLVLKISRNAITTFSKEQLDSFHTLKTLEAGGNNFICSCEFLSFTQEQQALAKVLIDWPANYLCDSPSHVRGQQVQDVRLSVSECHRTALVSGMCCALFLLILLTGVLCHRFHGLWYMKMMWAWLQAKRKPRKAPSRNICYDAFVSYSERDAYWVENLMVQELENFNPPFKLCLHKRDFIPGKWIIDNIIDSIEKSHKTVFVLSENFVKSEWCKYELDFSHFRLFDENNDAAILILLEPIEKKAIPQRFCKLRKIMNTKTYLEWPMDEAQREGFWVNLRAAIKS
Sequence (Q15399 whole entry): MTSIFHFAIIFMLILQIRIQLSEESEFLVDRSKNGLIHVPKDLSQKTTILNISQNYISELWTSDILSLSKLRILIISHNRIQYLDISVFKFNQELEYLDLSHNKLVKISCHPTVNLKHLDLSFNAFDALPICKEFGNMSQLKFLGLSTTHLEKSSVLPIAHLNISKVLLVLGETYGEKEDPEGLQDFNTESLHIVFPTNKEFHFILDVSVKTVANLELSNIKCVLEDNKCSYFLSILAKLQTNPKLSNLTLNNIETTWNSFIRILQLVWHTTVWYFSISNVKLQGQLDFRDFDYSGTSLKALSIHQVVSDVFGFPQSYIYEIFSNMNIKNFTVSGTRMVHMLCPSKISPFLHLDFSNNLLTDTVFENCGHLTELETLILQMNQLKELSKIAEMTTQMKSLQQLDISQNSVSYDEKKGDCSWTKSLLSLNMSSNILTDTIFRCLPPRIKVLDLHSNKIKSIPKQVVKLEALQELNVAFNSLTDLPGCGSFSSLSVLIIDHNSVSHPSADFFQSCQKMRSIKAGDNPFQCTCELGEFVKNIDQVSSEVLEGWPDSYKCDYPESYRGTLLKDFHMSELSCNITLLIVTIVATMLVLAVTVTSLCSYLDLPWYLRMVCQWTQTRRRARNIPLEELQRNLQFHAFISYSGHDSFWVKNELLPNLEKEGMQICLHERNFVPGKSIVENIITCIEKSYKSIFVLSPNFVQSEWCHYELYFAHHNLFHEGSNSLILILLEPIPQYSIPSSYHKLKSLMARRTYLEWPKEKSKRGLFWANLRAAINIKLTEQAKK
pEC50: −log10 of the molar value.
List of pEC50 values.
assay metric: pEC50

molecule="O=C(NCCc1ccc(-c2ccccc2)cc1)[C@@H]1CN(C(=O)c2ccc(C(=O)N3C[C@@H](C(=O)NCCc4ccc(-c5ccccc5)cc4)[C@H](C(=O)NCCc4ccc(-c5ccccc5)cc4)C3)cc2)C[C@H]1C(=O)NCCc1ccc(-c2ccccc2)cc1 (racemic)" val="< 5.30"
molecule=O=C(N[C@H]1C[C@@H]1c1ccccc1)[C@@H]1CN(C(=O)c2cccc(C(=O)N3C[C@@H](C(=O)N[C@H]4C[C@@H]4c4ccccc4)[C@H](C(=O)N[C@H]4C[C@@H]4c4ccccc4)C3)c2)C[C@H]1C(=O)N[C@H]1C[C@@H]1c1ccccc1 val="< 5.30"

Where do these numbers come from? They come from ChEMBL document CHEMBL5226282.
